assay: Rat pharmacokinetics, iv and po dosing, whole blood and plasma; format: in vivo; conditions: plasma, iv 1 mg/kg, mean, read-out: half-life (T1/2) (converted)
readout-label: half-life (h)
Expressed in h, but write only the number.

Reported half-life ( CC(C)CC1NC(=O)[C@H](CC(C)C)N(C)C(=O)CN(C)C(=O)C([C@@H](C)O)NC(=O)C([C@H](O)[C@H](C)CCN2CCOCC2)N(C)C(=O)C(C(C)C)N(C)C(=O)C(CC(C)C)NC(=O)C(CC(C)C)N(C)C(=O)C(C(C)C)OC(=O)C(C)NC(=O)C(CC(C)C)N(C)C1=O (stereo in doubt) ) = 4.96

----------
assay: Rat pharmacokinetics, iv and po dosing, whole blood and plasma; format: in vivo; conditions: whole blood, po 10 mg/kg, mean
readout-label: AUC(0-t) (ng·h/mL)
The figure you give is taken to be in ng·h/mL; do not add the unit.

The recorded AUC(0-t) for entry CC(C)CC1NC(=O)[C@H](CC(C)C)N(C)C(=O)CN(C)C(=O)C([C@@H](C)O)NC(=O)C([C@H](O)[C@H](C)CCN2CCOCC2)N(C)C(=O)C(C(C)C)N(C)C(=O)C(CC(C)C)NC(=O)C(CC(C)C)N(C)C(=O)C(C(C)C)OC(=O)C(C)NC(=O)C(CC(C)C)N(C)C1=O (stereo in doubt) [Example 2] equals 5930

----------
experiment: Rat pharmacokinetics, iv and po dosing, whole blood and plasma; format: in vivo; settings: whole blood, po 10 mg/kg, mean, read-out: half-life (T1/2) (converted)
readout-label: half-life (h)
Give the quantity in h, number only.

Per the records, this molecule ( CC(C)CC1NC(=O)[C@H](CC(C)C)N(C)C(=O)CN(C)C(=O)C([C@@H](C)O)NC(=O)C([C@H](O)[C@H](C)CCN2CCOCC2)N(C)C(=O)C(C(C)C)N(C)C(=O)C(CC(C)C)NC(=O)C(CC(C)C)N(C)C(=O)C(C(C)C)OC(=O)C(C)NC(=O)C(CC(C)C)N(C)C1=O (stereo in doubt) [Example 2] ) has half-life equal to 4.03

----------
molecular target: cyclophilin A (Cyp A) (Homo sapiens, UniProt P62937); construct: purchased Sigma C3805; experiment: Protease-free PPIase assay, cyclophilin A; assay type: biochemical; conditions: protease-free PPIase assay, class symbols; read-out: CypA Ki
Sequence (P62937 whole entry): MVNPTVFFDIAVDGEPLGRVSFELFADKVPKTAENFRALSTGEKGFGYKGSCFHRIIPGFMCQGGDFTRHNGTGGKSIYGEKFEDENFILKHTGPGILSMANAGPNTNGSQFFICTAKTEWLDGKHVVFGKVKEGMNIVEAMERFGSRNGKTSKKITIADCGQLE
Numbered stars: 1 amine (or outer) side, 2 acyl side, 3 side chain; on linkers, the order of the positions; unused ones are H or OH. Square brackets hold non-standard residues; d marks the D form. Peptide text beside a SMILES is read from it. X26 = C[C@H](C/C=C/c1cccc(N2CCOCC2)n1)[C@@H](O)[C@H](C(=O)[*:2])N(C)[*:1]; d(aThr) = C[C@@H](O)[C@@H](N)C(=O)O; NMeL = CN[C@@H](CC(C)C)C(=O)O; dNMeL = CN[C@H](CC(C)C)C(=O)O; dNMeV = CN[C@@H](C(=O)O)C(C)C; Hiv = CC(C)[C@H](O)C(=O)O; Sar = CNCC(=O)O
readout-label: Ki

The compound listed as CC(C)C[C@@H]1C(=O)N[C@H](CC(C)C)C(=O)N(C)[C@H](C(C)C)C(=O)N(C)[C@H]([C@H](O)[C@H](C)C/C=C/c2cccc(N3CCOCC3)n2)C(=O)N[C@H]([C@@H](C)O)C(=O)N(C)CC(=O)N(C)[C@@H](CC(C)C)C(=O)N[C@H](CC(C)C)C(=O)N(C)[C@H](CC(C)C)C(=O)N[C@H](C)C(=O)O[C@@H](C(C)C)C(=O)N1C [Example 18] (cyclo([Hiv][dNMeL][dL][dNMeV][X26][d(aThr)][Sar][NMeL][dL][dNMeL][dA])) shows Ki equal to 0.001 to 0.025 µM

----------
experiment: Rat pharmacokinetics, iv and po dosing, whole blood and plasma; type: in vivo; conditions: whole blood, iv 1 mg/kg, mean
readout-label: Cmax (ng/mL)
Provide only the numeric value, understood in ng/mL.

Field Cmax (entry CC(C)CC1NC(=O)[C@H](CC(C)C)N(C)C(=O)CN(C)C(=O)C([C@@H](C)O)NC(=O)C([C@H](O)[C@H](C)CCN2CCOCC2)N(C)C(=O)C(C(C)C)N(C)C(=O)C(CC(C)C)NC(=O)C(CC(C)C)N(C)C(=O)C(C(C)C)OC(=O)C(C)NC(=O)C(CC(C)C)N(C)C1=O (stereo in doubt) [Example 2] ) reads 643

----------
target: cyclophilin A (Cyp A) (Homo sapiens); construct: purchased Sigma C3805; test: Protease-free PPIase assay, cyclophilin A; format: biochemical; settings: protease-free PPIase assay, class symbols; read-out: CypA Ki
pKi: −log10 of the molar value. Numbered stars: 1 amine (or outer) side, 2 acyl side, 3 side chain; on linkers, the order of the positions; unused ones are H or OH. Square brackets hold non-standard residues; d marks the D form. Peptide text beside a SMILES is read from it. X28 = C[C@H](CCN1CCC(c2ccccc2)CC1)[C@@H](O)[C@H](C(=O)[*:2])N(C)[*:1]; X24 = C[C@H](CCN(C)CC1COCCO1)[C@@H](O)[C@H](C(=O)[*:2])N(C)[*:1]; d(aThr) = C[C@@H](O)[C@@H](N)C(=O)O; NMeL = CN[C@@H](CC(C)C)C(=O)O; dNMeL = CN[C@H](CC(C)C)C(=O)O; dNMeV = CN[C@@H](C(=O)O)C(C)C; Hiv = CC(C)[C@H](O)C(=O)O; Sar = CNCC(=O)O
This listing pairs compounds with measured pKi.

- CC(C)C[C@@H]1C(=O)N[C@H](CC(C)C)C(=O)N(C)[C@H](C(C)C)C(=O)N(C)[C@H]([C@H](O)[C@H](C)CCN2CCC(c3ccccc3)CC2)C(=O)N[C@H]([C@@H](C)O)C(=O)N(C)CC(=O)N(C)[C@@H](CC(C)C)C(=O)N[C@H](CC(C)C)C(=O)N(C)[C@H](CC(C)C)C(=O)N[C@H](C)C(=O)O[C@@H](C(C)C)C(=O)N1C [Example 34] (cyclo([Hiv][dNMeL][dL][dNMeV][X28][d(aThr)][Sar][NMeL][dL][dNMeL][dA])): 7.60 to 9.00

Next item in the queue.
For record CC(C)C[C@@H]1C(=O)N[C@H](CC(C)C)C(=O)N(C)[C@H](C(C)C)C(=O)N(C)[C@H]([C@H](O)[C@H](C)CCN(C)CC2COCCO2)C(=O)N[C@H]([C@@H](C)O)C(=O)N(C)CC(=O)N(C)[C@@H](CC(C)C)C(=O)N[C@H](CC(C)C)C(=O)N(C)[C@H](CC(C)C)C(=O)N[C@H](C)C(=O)O[C@@H](C(C)C)C(=O)N1C (stereo partly drawn) [Example 8] (cyclo([Hiv][dNMeL][dL][dNMeV][X24][d(aThr)][Sar][NMeL][dL][dNMeL][dA])) the listed pKi is 7.00 to 7.60

----------
Measured Ki by item
Molecular target: cyclophilin A (Cyp A) (Homo sapiens)
Construct: purchased Sigma C3805
Assay: Protease-free PPIase assay, cyclophilin A
Assay type: biochemical
Method: The protease-free PPIase assay measures the rate of cis to trans conversion of a peptide substrate catalyzed by the enzymes cyclophilin A and cyclophilin D. Addition of a cyclophilin inhibitor (e.g., a test compound) slows the catalyzed rate and a Ki value is obtained. […] All readings were taken with an Agilent 8453 Spectrophotometer which consists of a cuvette holder, stirrer and chiller to maintain a stirred cuvette temperature of 10.0±0.1° C. […]
Numbered stars: 1 amine (or outer) side, 2 acyl side, 3 side chain; on linkers, the order of the positions; unused ones are H or OH. Square brackets hold non-standard residues; d marks the D form. Peptide text beside a SMILES is read from it. X5 = C[C@H](CCN1CCS(=O)(=O)CC1)[C@@H](O)[C@H](C(=O)[*:2])N(C)[*:1]; X3 = C[C@H](CCN1CC2CCC(C1)O2)[C@@H](O)[C@H](C(=O)[*:2])N(C)[*:1]; X8 = C[C@H](CCN1CCC[C@H]1CO)[C@@H](O)[C@H](C(=O)[*:2])N(C)[*:1]; X31 = COCCN(C)CC[C@@H](C)[C@@H](O)[C@H](C(=O)[*:2])N(C)[*:1]; X16 = C[C@H](CCN1CCOCC1)[C@@H](O)[C@H](C(=O)[*:2])N(C)[*:1]; d(aThr) = C[C@@H](O)[C@@H](N)C(=O)O; NMeL = CN[C@@H](CC(C)C)C(=O)O; dNMeL = CN[C@H](CC(C)C)C(=O)O; dNMeV = CN[C@@H](C(=O)O)C(C)C; Hiv = CC(C)[C@H](O)C(=O)O; dAbu = CC[C@@H](N)C(=O)O; Sar = CNCC(=O)O

Example results:
• COCCN(C)CC[C@@H](C)[C@@H](O)[C@@H]1C(=O)N[C@H]([C@@H](C)O)C(=O)N(C)CC(=O)N(C)[C@@H](CC(C)C)C(=O)N[C@H](CC(C)C)C(=O)N(C)[C@H](CC(C)C)C(=O)N[C@H](C)C(=O)O[C@@H](C(C)C)C(=O)N(C)[C@H](CC(C)C)C(=O)N[C@H](CC(C)C)C(=O)N(C)[C@H](C(C)C)C(=O)N1C [Example 10] (cyclo([Hiv][dNMeL][dL][dNMeV][X31][d(aThr)][Sar][NMeL][dL][dNMeL][dA])) = 25 to 100 nM
• CC[C@H]1NC(=O)[C@@H]([C@H](O)[C@H](C)CCN2CCOCC2)N(C)C(=O)[C@@H](C(C)C)N(C)C(=O)[C@@H](CC(C)C)NC(=O)[C@@H](CC(C)C)N(C)C(=O)[C@H](C(C)C)OC(=O)[C@@H](C)NC(=O)[C@@H](CC(C)C)N(C)C(=O)[C@@H](CC(C)C)NC(=O)[C@H](CC(C)C)N(C)C(=O)CN(C)C1=O [Example 13] (cyclo([Hiv][dNMeL][dL][dNMeV][X16][dAbu][Sar][NMeL][dL][dNMeL][dA])) = 1 to 25 nM
• CC(C)C[C@@H]1C(=O)N[C@H](CC(C)C)C(=O)N(C)[C@H](C(C)C)C(=O)N(C)[C@H]([C@H](O)[C@H](C)CCN2CCS(=O)(=O)CC2)C(=O)N[C@H]([C@@H](C)O)C(=O)N(C)CC(=O)N(C)[C@@H](CC(C)C)C(=O)N[C@H](CC(C)C)C(=O)N(C)[C@H](CC(C)C)C(=O)N[C@H](C)C(=O)O[C@@H](C(C)C)C(=O)N1C [Example 23] (cyclo([Hiv][dNMeL][dL][dNMeV][X5][d(aThr)][Sar][NMeL][dL][dNMeL][dA])) = 1 to 25 nM
• CC(C)C[C@@H]1C(=O)N[C@H](CC(C)C)C(=O)N(C)[C@H](C(C)C)C(=O)N(C)[C@H]([C@H](O)[C@H](C)CCN2CCC[C@H]2CO)C(=O)N[C@H]([C@@H](C)O)C(=O)N(C)CC(=O)N(C)[C@@H](CC(C)C)C(=O)N[C@H](CC(C)C)C(=O)N(C)[C@H](CC(C)C)C(=O)N[C@H](C)C(=O)O[C@@H](C(C)C)C(=O)N1C [Example 26] (cyclo([Hiv][dNMeL][dL][dNMeV][X8][d(aThr)][Sar][NMeL][dL][dNMeL][dA])) = 100 to 300 nM

Now examine the next entry.
Entry under test: CC(C)C[C@@H]1C(=O)N[C@H](CC(C)C)C(=O)N(C)[C@H](C(C)C)C(=O)N(C)[C@H]([C@H](O)[C@H](C)CCN2CC3CCC(C2)O3)C(=O)N[C@H]([C@@H](C)O)C(=O)N(C)CC(=O)N(C)[C@@H](CC(C)C)C(=O)N[C@H](CC(C)C)C(=O)N(C)[C@H](CC(C)C)C(=O)N[C@H](C)C(=O)O[C@@H](C(C)C)C(=O)N1C [Example 22] (cyclo([Hiv][dNMeL][dL][dNMeV][X3][d(aThr)][Sar][NMeL][dL][dNMeL][dA])) . Its Ki was 1 to 25 nM
